meta.source: patent US20260285866A1

EC50 listing for selected compounds.
biological target: Human TRPML1 (Homo sapiens, UniProt Q9GZU1, L15A/L16A/L577A/L578A); assay: Fluorescent TRPML1 assay (Fluo4-AM, HEK-293 Trex cells expressing hTRPML1); conditions: fluorescent calcium assay, doxycycline-induced hTRPML1
Sequence (Q9GZU1 whole entry L15A/L16A/L577A/L578A): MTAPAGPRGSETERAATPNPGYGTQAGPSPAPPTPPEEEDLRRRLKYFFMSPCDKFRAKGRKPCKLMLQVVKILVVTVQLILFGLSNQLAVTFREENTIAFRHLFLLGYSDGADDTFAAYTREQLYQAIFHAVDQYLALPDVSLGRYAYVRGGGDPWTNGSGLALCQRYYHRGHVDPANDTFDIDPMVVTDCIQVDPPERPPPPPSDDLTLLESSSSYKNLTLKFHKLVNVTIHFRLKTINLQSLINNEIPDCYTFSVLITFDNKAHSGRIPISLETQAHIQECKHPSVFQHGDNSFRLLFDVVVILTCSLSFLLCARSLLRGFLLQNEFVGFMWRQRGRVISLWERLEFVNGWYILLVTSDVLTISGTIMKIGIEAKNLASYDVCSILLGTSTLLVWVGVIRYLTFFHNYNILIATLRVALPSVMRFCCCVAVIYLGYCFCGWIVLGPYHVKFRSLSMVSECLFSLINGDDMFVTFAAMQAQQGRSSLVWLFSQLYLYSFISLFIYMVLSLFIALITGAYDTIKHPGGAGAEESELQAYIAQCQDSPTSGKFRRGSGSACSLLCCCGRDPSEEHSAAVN

CCOC(C)(C)C(=O)N1C[C@H](C)N(c2ncnc3c2c(-c2ccncc2)cn3-c2cc(C#N)ccn2)C[C@H]1C = 100 to 500 nM
CCOC(C)(C)C(=O)N1C[C@H](C)N(c2ncnc3c2c(C2CC2)cn3-c2cc(C#N)ccn2)C[C@H]1C = < 100 nM
C[C@@H]1CN(c2ncnc3c2c(-c2nncs2)cn3-c2cc(C#N)ccn2)[C@@H](C)CN1C(=O)C(C)(C)O = > 2000 nM
C[C@H]1CN(c2ncnc3c2c(-c2ccccc2F)cn3-c2cc(C#N)ccn2)[C@@H](C)CN1C(=O)C(C)(C)O = 500 to 2000 nM
C[C@@H]1CN(c2ncnc3c2c(-c2ncco2)cn3-c2cc(C#N)ccn2)[C@@H](C)CN1C(=O)C(C)(C)O = 500 to 2000 nM
C[C@@H]1CN(c2ncnc3c2c(C2CC2)cn3-c2cc(C#N)ccn2)[C@@H](C)CN1C(=O)CC(C)(C)O = 500 to 2000 nM
C[C@@H]1CN(c2ncnc3c2c(-c2ccccc2F)cn3-c2cc(C#N)ccn2)[C@@H](C)CN1C(=O)C1(O)CCC1 = < 100 nM
CCC(O)(CC)C(=O)N1C[C@H](C)N(c2ncnc3c2c(-c2ccccc2)cn3-c2cc(C#N)ccn2)C[C@H]1C = < 100 nM

**Query** Annotate the compound C[C@H]1CN(C(=O)C2(O)CCC2)CCN1c1ncnc2c1c(-c1ccccc1)cn2-c1cc(C#N)ccn1 with its measured EC50.
**Result** 100 to 500 nM

**Query** Please report the measured EC50 for C[C@@H]1CN(c2ncnc3c2c(-c2ccccc2)cn3-c2cc(C#N)ccn2)[C@@H](C2CC2)CN1C(=O)C(C)(C)O
**Result** 100 to 500 nM

**Query** Query EC50 for C[C@@H]1CN(c2ncnc3c2c(-c2cnco2)cn3-c2cc(C#N)ccn2)[C@@H](C)CN1C(=O)C(C)(C)O
**Result** 100 to 500 nM

**Query** Indicate its recorded EC50; the compound in question is C[C@@H]1CN(c2ncnc3c2c(-c2cocn2)cn3-c2cc(C#N)ccn2)[C@@H](C)CN1C(=O)C(C)(C)O
**Result** 500 to 2000 nM

**Query** In one line, give reported EC50 of the entry CC[C@H]1CN(C(=O)C(C)(C)O)[C@H](C)CN1c1ncnc2c1c(-c1ccccc1)cn2-c1cc(C#N)ccn1 .
**Result** < 100 nM

**Query** Let me know recorded EC50 for C[C@@H]1CN(c2ncnc3c2c(-c2ccccc2)cn3-c2cc(C#N)ccn2)[C@@H](C)CN1C(=O)C(C)(C)O , thanks.
**Result** < 100 nM

* * *

Target: Human TRPML3 (Homo sapiens)
Sequence (Q8TDD5 1-553): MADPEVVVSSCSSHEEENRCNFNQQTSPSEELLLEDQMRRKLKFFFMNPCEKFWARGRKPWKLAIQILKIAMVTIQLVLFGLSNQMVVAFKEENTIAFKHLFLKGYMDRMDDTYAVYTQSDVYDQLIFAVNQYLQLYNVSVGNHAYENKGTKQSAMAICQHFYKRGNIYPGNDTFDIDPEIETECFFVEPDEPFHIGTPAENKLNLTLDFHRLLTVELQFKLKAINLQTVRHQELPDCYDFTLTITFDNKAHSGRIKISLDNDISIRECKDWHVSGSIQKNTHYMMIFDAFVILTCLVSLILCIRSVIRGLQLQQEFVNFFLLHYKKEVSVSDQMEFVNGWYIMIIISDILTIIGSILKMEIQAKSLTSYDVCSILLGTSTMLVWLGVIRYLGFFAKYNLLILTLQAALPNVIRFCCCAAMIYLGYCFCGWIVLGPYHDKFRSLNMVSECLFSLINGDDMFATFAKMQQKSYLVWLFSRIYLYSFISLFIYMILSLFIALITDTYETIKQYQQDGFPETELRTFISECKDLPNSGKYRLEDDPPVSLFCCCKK
Assay: Fluorescent TRPML3 assay (as for TRPML1)
Conditions: fluorescent calcium assay as for TRPML1, TRPML3 subtype
pEC50: −log10 of the molar value.
observationType: pEC50

Past entries and their recorded results:
C[C@@H]1CN(c2ncnc3c2c(-c2ccncc2)cn3-c2cc(C#N)ccn2)[C@@H](C)CN1C(=O)C1(O)CCCC1 = 6.30 to 7.00
C[C@@H]1CN(c2ncnc3c2c(-c2cccnc2)cn3-c2cc(C#N)ccn2)[C@@H](C)CN1C(=O)C(C)(C)O = < 5.70
C[C@@H]1CN(c2nccc3c2c(-c2ccncc2)cn3-c2cc(F)ccn2)[C@@H](C)CN1C(=O)C(C)(C)O = < 5.70
C[C@H]1CN(c2ncnc3c2c(-c2ccccc2F)cn3-c2cc(C#N)ccn2)[C@@H](C)CN1C(=O)C(C)(C)O = < 5.70
C[C@@H]1CN(c2ncnc3c2c(-c2ccccc2)cn3-c2cc(C#N)ccn2)[C@@H](C)CN1C(=O)C1(O)CCC1 = 5.70 to 6.30
C[C@@H]1CN(c2ncnc3c2c(-c2ccccc2F)cn3-c2cc(C#N)ccn2)[C@@H](C)CN1C(=O)C(C)(O)CO (stereo partly shown) = 5.70 to 6.30

Continue with the next molecule.
**Query** Note down pEC50 recorded for CCOC(C)(C)C(=O)N1C[C@H](C)N(c2ncnc3c2c(-c2ccccc2F)cn3-c2cc(C#N)ccn2)C[C@H]1C
**Result** > 7.00
